test system: Escherichia coli; conditions: Concentration 32 ug.mL-1; ASSAY_TEST Inhibition of Bacterial Growth; detection method Absorption (OD600); MEDIA CAMHB; plate type 384well; NBS; CORNING #3640; time 18 hr
Description: Antibacterial activity against Escherichia coli ATCC 25922 (CO-ADD:GN_001); MIC in CAMBH media using NBS plates, by OD(600)
Measured potencies and affinities stand elsewhere.
property name: Inhibition

Complete the entry with Inhibition for `COC(=O)C[C@H]1[C@H](/C=N\NC(=O)c2ccncc2)[C@@H](O[Si](C)(C)C(C)(C)C)C[C@@H]1Cl` 13.69%

Complete the entry with Inhibition for O=C(NN=CC[C@@H]1[C@@H](COC2CCCCO2)[C@H](OC2CCCCO2)C[C@@H]1O)c1ccncc1 (stereo partly drawn) 6.4%

Complete the entry with Inhibition for `O=C(N/N=C/CCCO)c1ccncc1` 5.12%
